target: human Kv1.5 (Homo sapiens, UniProt P22460); test: Kv1.5 Rb+ Efflux Assay; conditions: inhibition of 86Rb+ efflux through Kv1.5; cells stably transfected with human Kv1.5; 10 point concentration response curves n=2; normalised to 2.5mM 4 amino-pyridine block
Sequence (P22460 whole entry): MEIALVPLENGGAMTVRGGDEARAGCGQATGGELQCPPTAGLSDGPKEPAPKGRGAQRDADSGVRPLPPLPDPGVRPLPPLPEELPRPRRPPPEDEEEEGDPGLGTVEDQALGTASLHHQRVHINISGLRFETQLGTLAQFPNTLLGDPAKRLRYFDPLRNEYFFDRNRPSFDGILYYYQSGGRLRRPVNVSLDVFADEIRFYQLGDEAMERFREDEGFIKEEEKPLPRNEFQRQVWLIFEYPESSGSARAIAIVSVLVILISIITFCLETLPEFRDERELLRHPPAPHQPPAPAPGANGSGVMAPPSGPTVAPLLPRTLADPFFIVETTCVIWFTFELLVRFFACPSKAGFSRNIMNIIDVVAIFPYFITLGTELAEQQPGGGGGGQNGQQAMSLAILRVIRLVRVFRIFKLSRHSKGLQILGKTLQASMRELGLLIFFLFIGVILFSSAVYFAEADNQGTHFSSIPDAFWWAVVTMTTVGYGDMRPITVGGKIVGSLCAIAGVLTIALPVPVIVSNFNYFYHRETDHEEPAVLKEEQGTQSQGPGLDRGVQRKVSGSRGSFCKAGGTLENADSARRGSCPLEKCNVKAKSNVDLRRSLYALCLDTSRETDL
pIC50: −log10 of the molar value.
Label Condition met when pIC50 >= 5; otherwise Condition not met.

Some solved entries appear below for comparison.
c1ccc(-c2csc3ncnc(NC4CCCc5ccccc54)c23)cc1 (stereo not shown)    Condition not met
CC(C)(C)c1ccc(-c2csc3ncnc(NCc4ccccn4)c23)cc1    Condition met
c1ccc(-c2csc3ncnc(NCC4OCCO4)c23)cc1    Condition met
Cc1ccc(-c2csc3ncnc(Oc4ccc5ccccc5c4)c23)cc1    Condition not met
COC(=O)c1ccc(Oc2ncnc3scc(-c4ccc(C)cc4)c23)cc1    Condition not met
OCCc1nc(NCc2ccco2)c2c(-c3ccccc3)csc2n1    Condition met

pIC50 >= 5 for CN(C)c1nc(NCc2ccccn2)c2c(-c3ccc(F)cc3)csc2n1 ?
Condition not met

Data origin: patent EP1641803B1
